- Tested on: T47D
- method-notes: NCI tumour cell line growth inhibition, 48 h
Calls of active or inactive are those of the source. Cut-off read from the data, not from the text of the source: active = GI50 up to about 1.1 µM and inactive = higher. Where a SMILES comes first, the peptide text is derived from it. The star is where a group is joined. X33 = O=C(c1ccc(-c2ccc(Cl)cc2Cl)o1)*
Outcome codes: T for active, F for inactive

[
  {
    "compound": "COc1ccc(C(=O)/C=C2\\Nc3cccnc3N\\C2=C/C(=O)c2ccc(OC)cc2)cc1",
    "assigned-label": "F"
  },
  {
    "compound": "CCN(CC)C(=O)Cn1c2ccccc2[n+]2cc(N)ccc12",
    "assigned-label": "F"
  },
  {
    "compound": "COC(=O)CN(CC(=O)NCCNC(=O)OC(C)(C)C)C1CCCCC1N(CC(=O)OC)CC(=O)OC (stereo unspecified)",
    "assigned-label": "F"
  },
  {
    "compound": "N#Cc1cnn2ccn(C3OC(COC(=O)c4ccccc4)C(OC(=O)c4ccccc4)C3OC(=O)c3ccccc3)c12 (stereo unspecified)",
    "assigned-label": "F"
  },
  {
    "compound": "Clc1ccc(C2=Cc3nc2c(-c2ccccc2)c2ccc([nH]2)c(-c2ccccc2)c2nc(c(-c4ccccc4)c4ccc([nH]4)c3-c3ccccc3)C=C2)cc1",
    "assigned-label": "F"
  },
  {
    "compound": "Cc1cccc(/N=N/c2ccc(O)c(CN(C)C)c2)c1",
    "assigned-label": "F"
  },
  {
    "compound": "COc1cc([N+](=O)[O-])ccc1NC(=O)C(F)(F)F",
    "assigned-label": "F"
  },
  {
    "compound": "CC(C)(C)c1cc(S(=O)(=O)O)c2oc(-c3ccccc3)cc(=O)c2c1",
    "assigned-label": "F"
  },
  {
    "compound": "COc1cc2c(cc1OC)C(N)CC2=O (stereo unspecified)",
    "assigned-label": "F"
  },
  {
    "compound": "N#Cc1nc(-c2ccccc2C(=O)O)oc1N",
    "assigned-label": "F"
  },
  {
    "compound": "Nc1nc(N)c(Cn2ccnc2)c(O)n1",
    "assigned-label": "F"
  },
  {
    "compound": "CN(NC(=O)CCCl)C1=NCCN1",
    "assigned-label": "F"
  },
  {
    "compound": "COc1ccc(CC2C(=O)NC(C)C(=O)N(C)C3C(=O)N(C)C(Cc4ccc(O)c(c4)Oc4ccc(cc4)C3O)C(=O)NC(C)C(=O)NC(C)C(=O)N2C)cc1 (stereo unspecified)",
    "assigned-label": "T"
  },
  {
    "compound": "CC(NC(=O)c1ccc(NP(=O)(OCc2ccc([N+](=O)[O-])o2)N(C)CCCCCl)cc1)c1ccc(OCC2CCCCC2)c(C(N)=O)c1 (stereo unspecified)",
    "assigned-label": "F"
  },
  {
    "compound": "Cc1cc(S(=O)(=O)Nc2nc(Nc3ccc4ccccc4c3)n[nH]2)c(S)cc1Cl",
    "assigned-label": "F"
  },
  {
    "compound": "CCCCCCCCCCCCCCCCCCNc1ccn(C2OC(COP(=O)(O)OCC3OC(n4cc(C)c(=O)[nH]c4=O)CC3F)C(O)C2O)c(=O)n1 (stereo unspecified)",
    "assigned-label": "F"
  },
  {
    "compound": "COc1c(Cl)nc2ccccc2c1N=[N+]=[N-]",
    "assigned-label": "F"
  },
  {
    "compound": "CSc1nn(C)cc2ncnc1-2",
    "assigned-label": "F"
  },
  {
    "compound": "CCC(C)C(NC(=O)CNC(=O)C(Cc1ccccc1)NC(=O)C1CCCN1C(=O)c1ccc(-c2ccc(Cl)cc2Cl)o1)C(=O)OC (stereo unspecified) (X33-PFGI-OMe; configuration not given here)",
    "assigned-label": "F"
  },
  {
    "compound": "O=C1c2ccccc2-c2ccc(O)cc21",
    "assigned-label": "F"
  },
  {
    "compound": "COC(=O)Nc1nc(=O)c2ccccc2[nH]1",
    "assigned-label": "F"
  },
  {
    "compound": "Cc1n[nH]c(=O)c2c3c([nH]c12)-c1ccccc1C3",
    "assigned-label": "F"
  },
  {
    "compound": "Cc1noc(/N=C2\\C=C(O)C(=O)c3ccccc32)c1C",
    "assigned-label": "F"
  },
  {
    "compound": "CC(O)c1c2c(cc3c1CC1(C3)Cc3cc4c(c(C(C)O)c3C1)CCC4)CCC2 (stereo unspecified)",
    "assigned-label": "F"
  },
  {
    "compound": "CC(=O)O[C@H]1CN(S(=O)(=O)c2ccc(C)cc2)C[C@@H]1C1CCCCC1",
    "assigned-label": "F"
  },
  {
    "compound": "CCOC(=O)C1CC(C(=O)c2ccccc2)N2c3ccccc3-c3ccccc3C12 (stereo unspecified)",
    "assigned-label": "F"
  },
  {
    "compound": "O=[N+]([O-])/C=C/c1cc2ccc3ccccc3c2[nH]1",
    "assigned-label": "F"
  },
  {
    "compound": "COC(=O)[C@@H]1C[C@]2(CC=C(C)C)c3ccccc3N(S(=O)(=O)c3ccccc3)[C@@H]2N1C(=O)OC",
    "assigned-label": "F"
  },
  {
    "compound": "O=S1(=O)c2ccccc2N2C(c3ccccc3)=NOC2(c2ccccc2)CC1c1ccc(Br)cc1 (stereo unspecified)",
    "assigned-label": "F"
  },
  {
    "compound": "CN(C)CCCc1cccnc1",
    "assigned-label": "F"
  },
  {
    "compound": "O=C(O)CN1CCNCCN(CC(=O)O)CC1",
    "assigned-label": "F"
  }
]

* * *

- Test system: OVCAR-5
- method-notes: NCI tumour cell line growth inhibition, 48 h
Calls of active or inactive are those of the source. No stated cut-off is given here; in the data, active = GI50 up to about 1.1 µM and inactive = higher.
Outcome codes: yes = active, no = inactive

[
  {
    "molecule": "CCCCSCc1nc2nc(Cl)c(Cl)nc2[nH]1",
    "assigned-label": "no"
  },
  {
    "molecule": "CC(C)[C@H](O)C(=O)N[C@H]1Cc2ccc3c(c2)[C@]24C5=C(N=C(O5)[C@H](C(C)C)NC1=O)c1nc(Cl)c(o1)-c1c(Cl)[nH]c5cccc(c15)-c1cccc2c1N[C@H]4O3",
    "assigned-label": "yes"
  },
  {
    "molecule": "CN(C)CCCc1cccnc1",
    "assigned-label": "no"
  },
  {
    "molecule": "NCCCn1c2ccccc2c2c3c(c4c(c21)CCC(O)CC4)C(=O)NC3=O (configuration not stated)",
    "assigned-label": "no"
  },
  {
    "molecule": "COc1cc2c(cc1NC(=O)c1ccccc1)c1c(n2S(=O)(=O)c2ccccc2)CCN(S(=O)(=O)c2ccccc2)C1",
    "assigned-label": "no"
  },
  {
    "molecule": "CN(Cc1cnc2c(N)nc(N)nc2n1)c1ccc(Cl)cc1",
    "assigned-label": "no"
  },
  {
    "molecule": "Cc1nc(N)nc(N)c1N1CCN(Cc2ccccc2)CC1",
    "assigned-label": "no"
  },
  {
    "molecule": "C=C(C)CCC1CC=[N+]([O-])OC1C(C)(C)C (configuration not stated)",
    "assigned-label": "no"
  },
  {
    "molecule": "Cc1cc(=O)oc2c(CNC(C)C(=O)O)c(O)ccc12 (configuration not stated)",
    "assigned-label": "no"
  },
  {
    "molecule": "Cc1cccc(-c2cc(=O)c3cc(C)c(C)c(C(=O)O)c3o2)c1",
    "assigned-label": "no"
  },
  {
    "molecule": "O=C1/C(=C/c2ccco2)N=C2Sc3c([nH]cnc3=O)N12",
    "assigned-label": "no"
  },
  {
    "molecule": "NC1N=C(c2ccc(Cl)cc2)C2=C(N1)c1ccccc1CC2 (configuration not stated)",
    "assigned-label": "no"
  }
]

* * *

- Test system: HT-29
- method-notes: NCI tumour cell line growth inhibition, 48 h
Active and inactive are the calls of the source. No stated cut-off is given here; in the data, active = GI50 up to about 1.1 µM and inactive = higher.

[
  {
    "compound": "COC(=O)CCC1=NOC(CC2CC(CCC(=O)OC)=NO2)C1 (stereo not given)",
    "GI50": "> 100 µM (inactive)"
  },
  {
    "compound": "C=CCOC1=C(OC(C)=O)C(=O)OC1C1COC(C)(C)O1 (stereo not given)",
    "GI50": "30.1 µM (inactive)"
  },
  {
    "compound": "CC1CN(C)c2ccccc2N=C1NN (stereo not given)",
    "GI50": "> 100 µM (inactive)"
  },
  {
    "compound": "CC(=O)/N=C1/N(/C=C2\\C(=O)Oc3ccccc3C2=O)C(=O)/C(=C/c2ccccc2Cl)N1C",
    "GI50": "> 100 µM (inactive)"
  },
  {
    "compound": "Cc1nccn1S(=O)(=O)c1ccc(Cl)cc1",
    "GI50": "35 µM (inactive)"
  }
]
